biological target: PD-L1 His protein / PD-1 Fc protein (Homo sapiens, UniProt Q9NZQ7); assay: HTRF Assay (PD-1/PD-L1 interaction); format: binding; conditions: PD-L1 His 6 nM, PD-1 Fc 6 nM
Sequence (Q9NZQ7 19-238 limits assumed): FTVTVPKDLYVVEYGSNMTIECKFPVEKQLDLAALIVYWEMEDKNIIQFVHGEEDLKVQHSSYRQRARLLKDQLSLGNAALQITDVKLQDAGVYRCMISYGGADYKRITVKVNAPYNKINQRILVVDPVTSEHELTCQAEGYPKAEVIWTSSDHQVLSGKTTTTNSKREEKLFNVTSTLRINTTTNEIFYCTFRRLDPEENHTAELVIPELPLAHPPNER
// pIC50 lookup, one value per entry
# reply with the number alone; pIC50 is -log10 of concentration in mol/L

See these solved cases before continuing.
// pIC50 value for COc1nc(-c2cccc(-c3cccc(-c4cc5c(=O)n(C)c(CNC(C)(C)C)nn5c4)c3Cl)c2Cl)ccc1CNC[C@@H]1CCC(=O)N1 [Example 479] : 7.85

// pIC50 value for COC(=O)C[C@H](O)CNCc1cnc2cc(-c3cccc(-c4cccc(-c5ccc(CNC[C@@H]6CCC(=O)N6)c(OC)n5)c4Cl)c3Cl)ccn2c1=O [Example 220] : 10.00

Next:
// pIC50 value for COC(=O)CNCc1nn2cc(-c3cccc(-c4cccc(-c5ccc(CNC[C@@H]6CCC(=O)N6)c(OC)n5)c4Cl)c3Cl)cc2c(=O)n1C [Example 482] : 7.55

Entry source: patent US20230143612A1
